Listed below: Ki values for each entry.
target: NvEcR10DEF-NvUSPDEF (Nezara viridula); assay: Competition binding with [3H]ponasterone A, NvEcR10DEF-NvUSPDEF; conditions: calculated from IC50 with the Cheng-Prusoff equation
Write down the numeric answer in µM and omit the unit.

CC(CO)CC[C@@H](O)[C@](C)(O)[C@H]1CC[C@@]2(O)C3=CC(=O)[C@@H]4C[C@@H](O)[C@@H](O)C[C@]4(C)[C@H]3CC[C@]12C (stereo partly shown) = 6.3
CC(C(O)CCC(C)(C)O)C1CCC2(O)C3=CC(=O)C4CC(O)C(O)CC4(C)C3CCC12C (stereo not shown) = 46.2

Fill blank: measured Ki of the compound "CC(C)CC[C@@H](O)[C@](C)(O)[C@H]1CC[C@@]2(O)C3=CC(=O)[C@]4(O)C[C@@H](O)[C@@H](O)C[C@]4(C)[C@H]3[C@H](O)C[C@]12C" is ____.
0.1

Entry "CC(C)CC[C@@H](O)[C@](C)(O)[C@H]1CC[C@@]2(O)C3=CC(=O)[C@@H]4C[C@@H](O)[C@@H](O)C[C@]4(C)[C@H]3CC[C@]12C" : reported Ki = ?
0.2

* * *

biological target: NvEcR10DEF-NvUSPDEF (Nezara viridula, UniProt E5L6Y1); test: Competition binding with [3H]ponasterone A, NvEcR10DEF-NvUSPDEF; conditions: competition with 1.3 nM bindable [3H]ponasterone A
Below, each of the compounds is paired with its reported pIC50 value.
Note: pIC50 values are expressed as the negative base-10 logarithm of concentration in M.

Here are 3 compounds together with their reported answers.
CC(C(O)CCC(C)(C)O)C1CCC2(O)C3=CC(=O)C4CC(O)C(O)CC4(C)C3CCC12C (stereo not shown) = 4.26
CC(CO)CC[C@@H](O)[C@](C)(O)[C@H]1CC[C@@]2(O)C3=CC(=O)[C@@H]4C[C@@H](O)[C@@H](O)C[C@]4(C)[C@H]3CC[C@]12C (stereo partly shown) = 5.12
CC(C)CC[C@@H](O)[C@](C)(O)[C@H]1CC[C@@]2(O)C3=CC(=O)[C@]4(O)C[C@@H](O)[C@@H](O)C[C@]4(C)[C@H]3[C@H](O)C[C@]12C = 6.92

We now examine a further compound.
Request: pIC50, test system NvEcR10DEF-NvUSPDEF (Nezara viridula, UniProt E5L6Y1), entry "CC(C)CC[C@@H](O)[C@](C)(O)[C@H]1CC[C@@]2(O)C3=CC(=O)[C@@H]4C[C@@H](O)[C@@H](O)C[C@]4(C)[C@H]3CC[C@]12C"
6.59

* * *

biological target: NvEcR11DEF-NvUSPDEF (Nezara viridula)
readout: Ki (µM)
# value in µM; strip the unit string

CC(C)CC[C@@H](O)[C@](C)(O)[C@H]1CC[C@@]2(O)C3=CC(=O)[C@@H]4C[C@@H](O)[C@@H](O)C[C@]4(C)[C@H]3CC[C@]12C = 0.2
CC(C(O)CCC(C)(C)O)C1CCC2(O)C3=CC(=O)C4CC(O)C(O)CC4(C)C3CCC12C (stereo not shown) = 45.2

For the record "CC(C)CC[C@@H](O)[C@](C)(O)[C@H]1CC[C@@]2(O)C3=CC(=O)[C@]4(O)C[C@@H](O)[C@@H](O)C[C@]4(C)[C@H]3[C@H](O)C[C@]12C" , what value of Ki is listed for NvEcR11DEF-NvUSPDEF (Nezara viridula)?
0.1

Record lookup: for NvEcR11DEF-NvUSPDEF (Nezara viridula), what Ki belongs to CC(CO)CC[C@@H](O)[C@](C)(O)[C@H]1CC[C@@]2(O)C3=CC(=O)[C@@H]4C[C@@H](O)[C@@H](O)C[C@]4(C)[C@H]3CC[C@]12C (stereo partly shown) ?
6.8

* * *

Target or system NvEcR11DEF-NvUSPDEF (Nezara viridula): recorded pIC50 listed per item.
# pIC50 = -log10(concentration in molar units)

CC(C(O)CCC(C)(C)O)C1CCC2(O)C3=CC(=O)C4CC(O)C(O)CC4(C)C3CCC12C (stereo not drawn) [α-Ecdysone] = 4.28

Fill in the blank: the reported pIC50 of CC(CO)CC[C@@H](O)[C@](C)(O)[C@H]1CC[C@@]2(O)C3=CC(=O)[C@@H]4C[C@@H](O)[C@@H](O)C[C@]4(C)[C@H]3CC[C@]12C (stereo partly shown) [Inokosterone] is ____.
5.10

Please report the recorded pIC50 for CC(C)CC[C@@H](O)[C@](C)(O)[C@H]1CC[C@@]2(O)C3=CC(=O)[C@@H]4C[C@@H](O)[C@@H](O)C[C@]4(C)[C@H]3CC[C@]12C [Ponasterone A] .
6.55

I am curious: what pIC50 value has been reported for CC(C)CC[C@@H](O)[C@](C)(O)[C@H]1CC[C@@]2(O)C3=CC(=O)[C@]4(O)C[C@@H](O)[C@@H](O)C[C@]4(C)[C@H]3[C@H](O)C[C@]12C [Muristerone A] ?
6.92
